Recorded values, source patent US11667621B2.

target: CRISPR KI Y537S (Homo sapiens, UniProt P03372, Y537S); construct: endogenous in cells; host or cells: CRISPR knock-in clones (cl. 4, cl. 24); assay: Luciferase assay, CRISPR KI Y537S clones; type: cell-based; parameters: concentration or dose not given beside the values; conditions: clone 4
Sequence (P03372 whole entry Y537S): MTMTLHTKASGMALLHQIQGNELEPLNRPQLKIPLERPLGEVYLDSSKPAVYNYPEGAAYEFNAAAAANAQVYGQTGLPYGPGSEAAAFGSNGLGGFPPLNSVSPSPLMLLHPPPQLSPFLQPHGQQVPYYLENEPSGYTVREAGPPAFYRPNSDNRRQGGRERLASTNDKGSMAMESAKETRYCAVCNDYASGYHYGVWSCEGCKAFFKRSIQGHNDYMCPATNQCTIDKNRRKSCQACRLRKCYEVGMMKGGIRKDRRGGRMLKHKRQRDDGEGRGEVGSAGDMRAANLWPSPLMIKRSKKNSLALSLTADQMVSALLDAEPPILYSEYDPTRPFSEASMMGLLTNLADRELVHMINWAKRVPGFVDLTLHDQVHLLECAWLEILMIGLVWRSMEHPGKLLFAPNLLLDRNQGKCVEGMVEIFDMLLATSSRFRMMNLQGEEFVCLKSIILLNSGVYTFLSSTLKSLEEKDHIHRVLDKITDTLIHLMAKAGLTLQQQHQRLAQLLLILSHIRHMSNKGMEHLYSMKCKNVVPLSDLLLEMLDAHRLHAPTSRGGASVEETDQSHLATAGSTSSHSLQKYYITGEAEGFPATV

smilesText | CRISPR KI (% Inhibition) Y537S cl. 4 (%)
O=C(NCCCCOc1ccc(C(=C2C3CC4CC(C3)CC2C4)c2ccc(O)cc2)cc1)C1CCC(F)(F)CC1 | −334
O=C(NCCCCOc1ccc(C(=C2C3CC4CC(C3)CC2C4)c2ccc(O)cc2)cc1)C1CCCCC1 | −62
O=C(NCCCCOc1ccc(C(=C2C3CC4CC(C3)CC2C4)c2ccc(O)cc2)cc1)C12CC3CC(CC(C3)C1)C2 | −187
CC(C)(C)OC(=O)N[C@@H](Cc1c[nH]c2ccccc12)C(=O)NCCCCOc1ccc(C(=C2C3CC4CC(C3)CC2C4)c2ccc(O)cc2)cc1 | −74
O=C(NCCCCOc1ccc(C(=C2C3CC4CC(C3)CC2C4)c2ccc(O)cc2)cc1)[C@H]1CC[C@H](C(F)(F)F)CC1 | −342
O=C(NCCCCOc1ccc(C(=C2C3CC4CC(C3)CC2C4)c2ccc(O)cc2)cc1)C12CC3CC(CC1C3)C2 | −387
O=C(NCCCCOc1ccc(C(=C2C3CC4CC(C3)CC2C4)c2ccc(O)cc2)cc1)[C@H]1C[C@@H]2C=C[C@H]1C2 | −369
O=C(NCCCCOc1ccc(C(=C2C3CC4CC(C3)CC2C4)c2ccc(O)cc2)cc1)C1CCCCCC1 | −232
CC12CC3CC(C)(C1)CC(C(=O)NCCCCOc1ccc(C(=C4C5CC6CC(C5)CC4C6)c4ccc(O)cc4)cc1)(C3)C2 | −70
